biological target: UniProt:P00734
pKi: −log10 of the molar value. Structures can show the parent of a compound that is named as a salt.
Entries and their measured pKi follow.

Cc1nc(N)ccc1CNC(=O)[C@@H]1CCc2cnc(NCc3nn(C)c4ccccc34)c(=O)n21 [Compound 170, trifluoroacetate]
> 6.30
Cc1cc(F)cc(CNc2nc(Cl)c3n(c2=O)[C@H](C(=O)NCc2cnc4ccccn24)CC3)c1 [Compound 165, trifluoroacetate]
< 4.60
Cc1ccccc1[C@@H](C)Nc1ncc2n(c1=O)[C@H](C(=O)NCc1cc3cnccc3[nH]1)CC2 [Compound 81]
> 6.30

Let me check: Cc1ccc(C)c([C@@H](C)Nc2ncc3n(c2=O)[C@H](C(=O)NCc2cc4c(s2)CNC4)CC3)c1 [Compound 253] , system UniProt:P00734, measured pKi is > 6.30

Let me check: NCc1ccc(CNC(=O)[C@@H]2CCc3c(Cl)nc(NCc4ccc5c(c4)CCCC5)c(=O)n32)s1 [Compound 225, trifluoroacetate] , system UniProt:P00734, measured pKi is < 4.60

Let me check: Cc1cc(F)cc(CNc2ncc3n(c2=O)[C@H](C(=O)NC(C#N)c2cccc(Cl)c2)CC3)c1 (stereo partly shown) [Compound 185] , system UniProt:P00734, measured pKi is 5.00 to 5.60

Let me check: CC[C@H]1C[C@@H](C(=O)NCc2ccc(N)nc2C)n2c1cnc(NCc1cc(C)cc(C)c1)c2=O [Compound 156] , system UniProt:P00734, measured pKi is > 6.30
